System: rodent lifetime carcinogenesis bioassay, tumor incidence TD50
EXPERIMENTAL_PROTOCOL: carcinogenic potency in animals, long-term in vivo studies, CPDB compilation (AID 1745844)
CONDITIONS: rat; strain Fischer 344; females; by gavage; site: liver; lesion: one or several types; types not named; dosed 50 weeks; study length 104 weeks
READOUT: TD50 (mg/kg/day)
Numbers only, in mg/kg/day.

Exercise: Query TD50 for CCCCCN(N=O)C(N)=O
Solution: 4.7

---

Tested on: rodent lifetime carcinogenesis bioassay, tumor incidence TD50
EXPERIMENTAL_PROTOCOL: carcinogenic potency in animals, long-term in vivo studies, CPDB compilation (AID 1745844)
CONDITIONS: mouse; strain B6C3F1; males; oral dosing; site: lung; lesion: adenoma; dosed 79 weeks; study length 79 weeks
READOUT: TD50

Exercise: Query TD50 for C=C1C(C)(C)[C@@]2(Cl)C(Cl)[C@]1(Cl)C(Cl)(Cl)C2(Cl)Cl (stereo partly specified)
Solution: 8.29 mg/kg/day

---

System: rodent lifetime carcinogenesis bioassay, tumor incidence TD50
EXPERIMENTAL_PROTOCOL: carcinogenic potency in animals, long-term in vivo studies, CPDB compilation (AID 1745844)
CONDITIONS: rat; strain Fischer 344; males; by gavage; site: any site (literature study); lesion: several types; types named in the paper; dosed 98 weeks; study length 104 weeks
READOUT: TD50

Exercise: Query TD50 for c1cc(OCC2CO2)cc(OCC2CO2)c1 (stereo unspecified)
Solution: 2.43 mg/kg/day

---

System: rodent lifetime carcinogenesis bioassay, tumor incidence TD50
EXPERIMENTAL_PROTOCOL: carcinogenic potency in animals, long-term in vivo studies, CPDB compilation (AID 1745844)
CONDITIONS: rat; strain Fischer 344; males; in drinking water; site: liver; lesion: hepatocellular carcinoma; dosed 30 weeks; study length 55 weeks
So I've got a bunch of compounds here, and I need their TD50 values.

SMILES_REPRESENTATION | TD50
CCN=[N+]([O-])CC | 0.0347 mg/kg/day

Now consider a different compound.
Exercise: Query TD50 for CC[N+]([O-])=NC
Solution: 0.0189 mg/kg/day

---

System: rodent lifetime carcinogenesis bioassay, tumor incidence TD50
EXPERIMENTAL_PROTOCOL: carcinogenic potency in animals, long-term in vivo studies, CPDB compilation (AID 1745844)
CONDITIONS: hamster; strain Syrian Golden; males; by gavage; site: liver; lesion: cholangioma; dosed 30 weeks; study length 85 weeks
READOUT: TD50
Could you write the number and then its unit?

Exercise: Query TD50 for CCN(N=O)C(=O)NCC(C)=O
Solution: 1.1 mg/kg/day

---

Tested on: rodent lifetime carcinogenesis bioassay, tumor incidence TD50
EXPERIMENTAL_PROTOCOL: carcinogenic potency in animals, long-term in vivo studies, CPDB compilation (AID 1745844)
CONDITIONS: hamster; strain Syrian Golden; females; in drinking water; site: lung; lesion: angiosarcoma; dosed 67 weeks; study length 67 weeks
READOUT: TD50

Exercise: Query TD50 for CNNC
Solution: 0.395 mg/kg/day

---

System: rodent lifetime carcinogenesis bioassay, tumor incidence TD50
EXPERIMENTAL_PROTOCOL: carcinogenic potency in animals, long-term in vivo studies, CPDB compilation (AID 1745844)
CONDITIONS: mouse; strain B6C3F1; females; in feed; site: all sites; lesion: hemangioma + hemangiosarcoma; dosed 104 weeks; study length 106 weeks
READOUT: TD50
Could you write the number and then its unit?

Exercise: Look up rodent lifetime carcinogenesis bioassay, tumor incidence TD50 data: TD50 of OCC(CO)(CBr)CBr , then report it.
Solution: 846 mg/kg/day

---

System: rodent lifetime carcinogenesis bioassay, tumor incidence TD50
EXPERIMENTAL_PROTOCOL: carcinogenic potency in animals, long-term in vivo studies, CPDB compilation (AID 1745844)
CONDITIONS: rat; strain Fischer 344; females; in feed; site: subcutaneous tissue; lesion: fibrosarcoma + fibroma; dosed 103 weeks; study length 104 weeks
READOUT: TD50

Exercise: Query TD50 for N=C1C=CC(=C(c2ccc(N)cc2)c2ccc(N)cc2)C=C1
Solution: 42.8 mg/kg/day

---

System: rodent lifetime carcinogenesis bioassay, tumor incidence TD50
EXPERIMENTAL_PROTOCOL: carcinogenic potency in animals, long-term in vivo studies, CPDB compilation (AID 1745844)
CONDITIONS: mouse; strain Swiss albino; females; in drinking water; site: subcutaneous tissue; lesion: angiosarcoma; dosed 93 weeks; study length 93 weeks
READOUT: TD50

Exercise: Look up rodent lifetime carcinogenesis bioassay, tumor incidence TD50 data: TD50 of NNCCc1ccccc1 , then report it.
Solution: 19.9 mg/kg/day

---

Tested on: rodent lifetime carcinogenesis bioassay, tumor incidence TD50
EXPERIMENTAL_PROTOCOL: carcinogenic potency in animals, long-term in vivo studies, CPDB compilation (AID 1745844)
CONDITIONS: rat; strain Harlan; males; in feed; site: any site (literature study); lesion: several types; types named in the paper; dosed 72 weeks; study length 94 weeks
READOUT: TD50 (mg/kg/day)
Answers are plain numbers, in mg/kg/day.

Exercise: Query TD50 for C#CC(OC(N)=O)(c1ccccc1)c1ccc(Cl)cc1 (stereo unspecified)
Solution: 3.88

---

Tested on: rodent lifetime carcinogenesis bioassay, tumor incidence TD50
EXPERIMENTAL_PROTOCOL: carcinogenic potency in animals, long-term in vivo studies, CPDB compilation (AID 1745844)
CONDITIONS: rat; strain Fischer 344; males; in drinking water; site: liver; lesion: neoplastic nodule; dosed 78 weeks; study length 104 weeks
Active and inactive are the calls of the source. The rule behind the calls is not given here.
READOUT: TD50

Exercise: Query TD50 for ClCCl
Solution: 1610 mg/kg/day (inactive)

---

System: rodent lifetime carcinogenesis bioassay, tumor incidence TD50
EXPERIMENTAL_PROTOCOL: carcinogenic potency in animals, long-term in vivo studies, CPDB compilation (AID 1745844)
CONDITIONS: mouse; strain DDY; males; in feed; site: heart; lesion: spindle-cell sarcoma; dosed 115 weeks; study length 115 weeks
Activity calls are given as the source filed them. How the calls were made is not given here.
READOUT: TD50

Exercise: Look up rodent lifetime carcinogenesis bioassay, tumor incidence TD50 data: TD50 of O=c1c(O)c(-c2ccc(O)c(O)c2)oc2cc(O)cc(O)c12 , then report it.
Solution: 73400 mg/kg/day (inactive)

---

Test system: rodent lifetime carcinogenesis bioassay, tumor incidence TD50
EXPERIMENTAL_PROTOCOL: carcinogenic potency in animals, long-term in vivo studies, CPDB compilation (AID 1745844)
CONDITIONS: mouse; strain B6C3F1; males; in feed; site: all sites; lesion: malignant lymphoma, histiocytic type + malignant lymphoma, mixed type + malignant lymphoma, lymphocytic type; dosed 104 weeks; study length 105 weeks
READOUT: TD50 (mg/kg/day)
Answers are plain numbers, in mg/kg/day.

Exercise: Look up rodent lifetime carcinogenesis bioassay, tumor incidence TD50 data: TD50 of O=[N+]([O-])c1cc(N(CCO)CCO)ccc1NCCO , then report it.
Solution: 4040

---

Tested on: rodent lifetime carcinogenesis bioassay, tumor incidence TD50
EXPERIMENTAL_PROTOCOL: carcinogenic potency in animals, long-term in vivo studies, CPDB compilation (AID 1745844)
CONDITIONS: hamster; strain Syrian Golden; males; in drinking water; site: skin; lesion: melanotic tumor; dosed 76 weeks; study length 76 weeks
READOUT: TD50

Exercise: Query TD50 for CCOC(N)=O
Solution: 74.2 mg/kg/day

---

Tested on: rodent lifetime carcinogenesis bioassay, tumor incidence TD50
EXPERIMENTAL_PROTOCOL: carcinogenic potency in animals, long-term in vivo studies, CPDB compilation (AID 1745844)
CONDITIONS: rat; strain Fischer 344; males; inhaled; site: oral mucosa + gingiva + pharynx; lesion: squamous-cell papilloma; dosed 104 weeks; study length 104 weeks
READOUT: TD50 (mg/kg/day)
Answers are plain numbers, in mg/kg/day.

Exercise: Query TD50 for C=CC(=C)Cl
Solution: 39.2

---

Tested on: rodent lifetime carcinogenesis bioassay, tumor incidence TD50
EXPERIMENTAL_PROTOCOL: carcinogenic potency in animals, long-term in vivo studies, CPDB compilation (AID 1745844)
CONDITIONS: mouse; strain B6C3F1; males; inhaled; site: lung; lesion: alveolar/bronchiolar adenoma + alveolar/bronchiolar carcinoma; dosed 52 weeks; study length 104 weeks
READOUT: TD50 (mg/kg/day)
Numbers only, in mg/kg/day.

Exercise: Query TD50 for C=CC=C
Solution: 7.25

---

Tested on: rodent lifetime carcinogenesis bioassay, tumor incidence TD50
EXPERIMENTAL_PROTOCOL: carcinogenic potency in animals, long-term in vivo studies, CPDB compilation (AID 1745844)
CONDITIONS: rat; strain Sprague-Dawley; females; by gavage; site: uterus; lesion: fibroma; dosed 167 weeks; study length 167 weeks
READOUT: TD50 (mg/kg/day)
Answers are plain numbers, in mg/kg/day.

Exercise: Query TD50 for CC/C(=C(\c1ccccc1)c1ccc(OCCN(C)C)cc1)c1ccccc1
Solution: 247

Reference for the values: PubChem BioAssay AID1745844
